Can you tell me IC50 for the items I'm about to list?
# Target system: EGFR del19/C797S (Homo sapiens, UniProt P00533, C797S/DEL746-750)
# Sequence (P00533 with tags, fused parts or gaps DEL746-750/C797S): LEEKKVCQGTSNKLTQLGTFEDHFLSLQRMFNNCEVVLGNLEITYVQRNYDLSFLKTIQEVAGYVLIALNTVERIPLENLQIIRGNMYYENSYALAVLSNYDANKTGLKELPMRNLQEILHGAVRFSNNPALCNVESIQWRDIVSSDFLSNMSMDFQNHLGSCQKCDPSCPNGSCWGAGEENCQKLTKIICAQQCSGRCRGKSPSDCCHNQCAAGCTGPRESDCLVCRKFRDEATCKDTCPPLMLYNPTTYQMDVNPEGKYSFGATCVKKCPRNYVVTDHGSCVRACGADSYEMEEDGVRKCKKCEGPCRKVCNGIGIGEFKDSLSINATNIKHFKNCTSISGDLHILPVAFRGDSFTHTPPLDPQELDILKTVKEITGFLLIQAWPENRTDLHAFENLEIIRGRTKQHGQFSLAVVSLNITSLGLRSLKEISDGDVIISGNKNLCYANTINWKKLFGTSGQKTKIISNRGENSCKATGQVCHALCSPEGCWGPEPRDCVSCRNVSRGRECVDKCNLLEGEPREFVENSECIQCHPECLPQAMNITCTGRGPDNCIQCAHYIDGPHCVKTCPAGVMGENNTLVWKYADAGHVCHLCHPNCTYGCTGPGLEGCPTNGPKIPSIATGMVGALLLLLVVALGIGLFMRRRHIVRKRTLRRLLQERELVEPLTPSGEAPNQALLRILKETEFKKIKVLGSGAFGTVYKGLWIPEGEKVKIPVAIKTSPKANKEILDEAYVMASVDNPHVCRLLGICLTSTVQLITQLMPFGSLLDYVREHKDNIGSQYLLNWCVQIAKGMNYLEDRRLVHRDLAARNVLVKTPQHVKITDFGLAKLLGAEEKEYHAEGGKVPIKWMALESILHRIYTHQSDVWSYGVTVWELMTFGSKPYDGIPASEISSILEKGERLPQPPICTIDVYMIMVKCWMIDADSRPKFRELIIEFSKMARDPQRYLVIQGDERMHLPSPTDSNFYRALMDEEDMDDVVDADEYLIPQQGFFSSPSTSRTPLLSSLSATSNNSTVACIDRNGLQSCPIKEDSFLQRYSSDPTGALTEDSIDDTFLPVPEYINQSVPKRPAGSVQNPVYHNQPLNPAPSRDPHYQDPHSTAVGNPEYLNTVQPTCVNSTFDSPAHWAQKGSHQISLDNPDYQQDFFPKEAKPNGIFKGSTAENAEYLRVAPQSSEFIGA
# Assay procedure: Biochemical EGFR kinase assay (Lance Ultra TR-FRET), double mutant del19/C797S
# Experimental conditions: ATP at Km; read-out: IC50 del19/C797S, Km ATP
Answers are plain numbers, in nM.

Some compounds with known IC50 results, for comparison:
CN(C)C[C@H]1CC[C@@H](Nc2cc(Nc3ccnc(-c4cnn(S(=O)(=O)C5CC5)c4)n3)ncc2-c2cc(NC3CC(F)(F)C3)ccn2)CC1
0.8
CC(C)(O)[C@H]1CC[C@@H](Nc2cc(Nc3ccnc(-c4cnn(S(=O)(=O)C5CC5)c4)n3)ncc2-c2ccc(CC(F)(F)F)cn2)CC1
27.8
CC(O)(c1ccc(-c2cnc(Nc3ccnc(-c4cnn(S(=O)(=O)C5CC5)c4)n3)cc2NC2CCC(F)CC2)nc1)C(F)(F)F (stereo not drawn) [Example 266]
12.5
CC1(O)CCC(Nc2cc(Nc3ccnc(-c4cnn(S(=O)(=O)C5CC5)c4)n3)ncc2-c2cc(S(C)(=O)=O)ccn2)CC1 (stereo not drawn)
0.7
CC(O)(c1ccc(-c2cnc(Nc3ccnc(-c4cnn(S(=O)(=O)C5CC5)c4)n3)cc2N[C@H]2CCC[C@H](CO)C2)nc1)C(F)(F)F (stereo partly drawn)
3.3

// next item, IC50 requested
Form: compound = CN(C)S(=O)(=O)n1cc(-c2nccc(Nc3cc(NC4CCC(C)(O)CC4)c(-c4ccc(C(O)C(F)(F)F)cn4)cn3)n2)cn1 (stereo not drawn) ; IC50 = 4

###

Field: IC50. Provide a value for each of the molecules that follow.
# Target system: EGFR L858R/T790M/C797S (Homo sapiens, UniProt P00533, C797S/L858R/T790M)
# Sequence (P00533 25-1210 T790M/C797S/L858R): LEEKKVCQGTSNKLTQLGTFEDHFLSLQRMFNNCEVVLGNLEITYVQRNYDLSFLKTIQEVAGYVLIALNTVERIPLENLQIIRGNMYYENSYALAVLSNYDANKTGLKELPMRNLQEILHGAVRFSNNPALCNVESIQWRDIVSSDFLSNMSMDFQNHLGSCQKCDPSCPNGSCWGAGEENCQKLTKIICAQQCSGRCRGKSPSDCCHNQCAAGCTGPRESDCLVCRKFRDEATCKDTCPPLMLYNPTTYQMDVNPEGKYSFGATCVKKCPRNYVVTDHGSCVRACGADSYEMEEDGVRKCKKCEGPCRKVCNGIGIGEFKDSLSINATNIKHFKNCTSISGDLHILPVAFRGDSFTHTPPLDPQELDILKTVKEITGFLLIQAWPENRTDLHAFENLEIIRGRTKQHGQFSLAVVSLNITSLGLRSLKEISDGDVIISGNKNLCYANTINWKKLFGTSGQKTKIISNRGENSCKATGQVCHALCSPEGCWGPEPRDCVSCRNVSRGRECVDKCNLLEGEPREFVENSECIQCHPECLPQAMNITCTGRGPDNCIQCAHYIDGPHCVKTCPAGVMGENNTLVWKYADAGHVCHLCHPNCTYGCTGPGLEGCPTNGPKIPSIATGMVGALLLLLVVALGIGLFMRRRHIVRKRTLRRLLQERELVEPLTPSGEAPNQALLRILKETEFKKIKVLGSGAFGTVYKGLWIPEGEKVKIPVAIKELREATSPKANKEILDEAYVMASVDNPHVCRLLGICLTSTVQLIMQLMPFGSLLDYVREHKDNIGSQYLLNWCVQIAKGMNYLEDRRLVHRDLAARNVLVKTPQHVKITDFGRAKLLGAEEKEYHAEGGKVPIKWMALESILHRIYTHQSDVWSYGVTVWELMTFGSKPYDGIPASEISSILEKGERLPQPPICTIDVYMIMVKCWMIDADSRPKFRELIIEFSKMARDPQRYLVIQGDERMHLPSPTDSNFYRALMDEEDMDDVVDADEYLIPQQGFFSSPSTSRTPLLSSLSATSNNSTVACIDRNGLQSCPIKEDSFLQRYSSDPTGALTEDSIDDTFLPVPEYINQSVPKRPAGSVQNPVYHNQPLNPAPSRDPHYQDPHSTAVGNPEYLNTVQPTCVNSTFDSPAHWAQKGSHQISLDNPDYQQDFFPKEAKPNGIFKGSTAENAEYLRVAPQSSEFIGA
# Assay procedure: Biochemical EGFR kinase assay (Lance Ultra TR-FRET), triple mutant L858R/T790M/C797S
# Experimental conditions: IC50 L858R/T790M/C797S (nM) 100 μM ATP, 100 μM ATP
A complete answer gives the number and then names the unit.

Before answering, review these 2 worked examples.
CN(C)CCOc1cnc(-c2cnc(Nc3ccnc(-c4cnn(S(=O)(=O)C5CC5)c4)n3)cc2N[C@H]2CC[C@@H](CO)CC2)cn1
0.04 nM
C[C@]1(O)CC[C@@H](Nc2cc(Nc3ccnc(-c4cnn(S(=O)(=O)C5CC5)c4)n3)ncc2-c2cc(N3CCOCC3)ccn2)CC1
2.1 nM

// next entry
Entry COc1ccc(-c2cnc(Nc3ccnc(-c4cnn(S(=O)(=O)C5CC5)c4)n3)cc2N[C@H]2CC[C@@](C)(O)CC2)nn1 — recorded IC50 = 0.5 nM

###

# Target system: EGFR del19/T790M/C797S (Homo sapiens, UniProt P00533, C797S/DEL746-750/T790M)
# Sequence (P00533 with tags, fused parts or gaps DEL746-750/T790M/C797S): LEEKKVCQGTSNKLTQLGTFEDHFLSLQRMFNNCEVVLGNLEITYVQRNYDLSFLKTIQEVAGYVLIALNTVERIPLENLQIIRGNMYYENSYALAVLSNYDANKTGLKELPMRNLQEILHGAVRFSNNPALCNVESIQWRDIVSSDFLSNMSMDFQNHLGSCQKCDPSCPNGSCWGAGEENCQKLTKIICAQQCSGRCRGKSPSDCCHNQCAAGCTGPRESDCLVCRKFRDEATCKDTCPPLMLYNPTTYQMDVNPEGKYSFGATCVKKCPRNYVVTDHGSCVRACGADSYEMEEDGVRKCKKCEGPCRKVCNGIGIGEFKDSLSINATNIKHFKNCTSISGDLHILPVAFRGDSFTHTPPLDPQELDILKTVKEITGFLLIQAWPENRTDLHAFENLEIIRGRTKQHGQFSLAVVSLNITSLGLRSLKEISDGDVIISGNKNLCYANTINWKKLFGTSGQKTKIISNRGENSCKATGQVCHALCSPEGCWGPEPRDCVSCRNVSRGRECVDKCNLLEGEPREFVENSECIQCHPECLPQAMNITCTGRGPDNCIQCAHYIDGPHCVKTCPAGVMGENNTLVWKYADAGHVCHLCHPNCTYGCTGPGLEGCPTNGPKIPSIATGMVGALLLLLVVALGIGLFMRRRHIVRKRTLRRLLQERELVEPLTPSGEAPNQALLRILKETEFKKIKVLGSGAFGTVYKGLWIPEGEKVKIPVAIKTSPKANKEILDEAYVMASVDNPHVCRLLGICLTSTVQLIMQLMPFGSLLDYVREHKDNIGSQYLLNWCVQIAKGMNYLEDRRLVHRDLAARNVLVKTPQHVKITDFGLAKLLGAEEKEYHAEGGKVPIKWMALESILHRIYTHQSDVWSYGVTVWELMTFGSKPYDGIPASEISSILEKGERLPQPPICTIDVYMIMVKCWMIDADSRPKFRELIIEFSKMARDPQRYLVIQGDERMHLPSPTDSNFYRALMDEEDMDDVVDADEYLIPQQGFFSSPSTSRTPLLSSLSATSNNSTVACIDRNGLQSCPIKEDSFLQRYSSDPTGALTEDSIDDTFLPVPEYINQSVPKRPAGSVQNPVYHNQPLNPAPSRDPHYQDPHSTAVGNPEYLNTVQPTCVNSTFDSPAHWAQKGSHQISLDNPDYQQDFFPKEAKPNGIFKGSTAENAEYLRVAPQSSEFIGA
# Assay procedure: Biochemical EGFR kinase assay (Lance Ultra TR-FRET), triple mutant del19/T790M/C797S
# Experimental conditions: IC50 del19/T790M/C797S (nM) 100 μM ATP, 100 μM ATP
Please go through the items and note down their IC50.
One number for each entry, in nM.

CC(C)(O)c1ccc(-c2cnc(Nc3ccnc(-c4cnn(S(=O)(=O)C5CC5)c4)n3)cc2N[C@H]2CC[C@@H](C(C)(C)O)CC2)nn1
4.9
CC(C)(O)[C@H]1CC[C@@H](Nc2cc(Nc3ccnc(-c4cnn(S(=O)(=O)C5CC5)c4)n3)ncc2-c2ccc(CO)cn2)CC1
8.4
CN(C)Cc1cccc(-c2cnc(Nc3ccnc(-c4cnn(S(=O)(=O)C5CC5)c4)n3)cc2N[C@H]2CC[C@@](C)(O)CC2)n1
0.1

Kindly give each listed record's IC50.
1. C[C@]1(O)CC[C@@H](Nc2cc(Nc3ccnc(-c4cnn(S(=O)(=O)C5CC5)c4)n3)ncc2-c2cccc(CO)n2)CC1
2. CN1CCN(Cc2ccc(-c3cnc(Nc4ccnc(-c5cnn(S(=O)(=O)C6CC6)c5)n4)cc3N3CCC(C)(CO)CC3)nc2)CC1
3. COc1cnc(-c2cnc(Nc3ccnc(-c4cnn(S(=O)(=O)C5CC5)c4)n3)cc2N[C@H]2CC[C@@](C)(O)CC2)cn1
4. CN1CCN(Cc2cnc(-c3cnc(Nc4ccnc(-c5cnn(S(=O)(=O)C6CC6)c5)n4)cc3N[C@H]3CC[C@@](C)(O)CC3)cn2)CC1
5. C[C@]1(O)CC[C@@H](Nc2cc(Nc3ccnc(-c4cnn(S(=O)(=O)C5CC5)c4)n3)ncc2-c2cc(C(F)F)ccn2)CC1
6. C[C@]1(O)CC[C@@H](Nc2cc(Nc3ccnc(-c4cnn(S(=O)(=O)C5CC5)c4)n3)ncc2-c2cccc(CN3CCOCC3)n2)CC1
7. C[C@]1(O)CC[C@@H](Nc2cc(Nc3ccnc(-c4cnn(S(=O)(=O)C5CC5)c4)n3)ncc2-c2ccc(N3CCOCC3)cn2)CC1
8. C[C@]1(O)CC[C@@H](Nc2cc(Nc3ccnc(-c4cnn(S(=O)(=O)C5CC5)c4)n3)ncc2-c2cc(CN3CCC(F)(F)CC3)ccn2)CC1

1: 0.3; 2: 0.8; 3: 1.4; 4: 0.1; 5: 1; 6: 0.2; 7: 0.4; 8: 5.7

The value of IC50 measured for the molecule CC(C)N1CCN(Cc2ccc(-c3cnc(Nc4ccnc(-c5cnn(S(=O)(=O)C6CC6)c5)n4)cc3N[C@H]3CC[C@@](C)(O)CC3)nc2)CC1 turned out to be 0.6

###

Please go through the items and note down their IC50.
# Target system: EGFR del19/C797S (Homo sapiens, UniProt P00533, C797S/DEL746-750)
# Assay procedure: Biochemical EGFR kinase assay (Lance Ultra TR-FRET), double mutant del19/C797S
# Experimental conditions: IC50 del19/C797S (nM) 100 μM ATP, 100 μM ATP
Numbers only, in nM.

// below: answered compounds
C[C@]1(O)CC[C@@H](Nc2cc(Nc3ccnc(-c4cnn(S(=O)(=O)C5CC5)c4)n3)ncc2-c2ccc(C(F)F)cn2)CC1 [Example 63]
0.8
C[C@]1(O)CC[C@@H](Nc2cc(Nc3ccnc(-c4cnn(S(=O)(=O)C5CC5)c4)n3)ncc2-c2cnc(CO)cn2)CC1 [Example 60]
0.5

Sample CN1CCN(c2ccc(-c3cnc(Nc4ccnc(-c5cnn(S(=O)(=O)C6CC6)c5)n4)cc3N[C@H]3CC[C@@](C)(O)CC3)nc2)CC1 [Example 83] ; IC50 observed: 0.2

###

# Target system: EGFR L858R/T790M/C797S (Homo sapiens, UniProt P00533, C797S/L858R/T790M)
# Assay procedure: Biochemical EGFR kinase assay (Lance Ultra TR-FRET), triple mutant L858R/T790M/C797S
# Experimental conditions: IC50 L858R/T790M/C797S (nM) 100 μM ATP, 100 μM ATP
Observable: IC50 (nM)
Answers are plain numbers, in nM.

Field: example entries. Status: answers known.
CN(C)C[C@H]1CC[C@@H](Nc2cc(Nc3ccnc(-c4cnn(S(=O)(=O)C5CC5)c4)n3)ncc2-c2cc(C(C)(C)O)ccn2)CC1
0.1
CC(C)(O)[C@H]1CC[C@@H](Nc2cc(Nc3ccnc(-c4cnn(S(=O)(=O)C5CC5)c4)n3)ncc2-c2cc(C(F)F)ccn2)CC1
5.4
CN(C)Cc1cnc(-c2cnc(Nc3ccnc(-c4cnn(S(=O)(=O)C5CC5)c4)n3)cc2N[C@H]2CC[C@@](C)(O)CC2)cn1
0.3
COc1cnc(-c2cnc(Nc3ccnc(-c4cnn(S(=O)(=O)C5CC5)c4)n3)cc2N[C@H]2CC[C@@](C)(O)CC2)cn1
2.4
CN(C)Cc1ccc(-c2cnc(Nc3ccnc(-c4cnn(S(=O)(=O)C5CC5)c4)n3)cc2N[C@H]2CC[C@@H](C(C)(C)O)CC2)nc1
0.4

Consider now this further molecule.
Noted IC50 for CC(C)(O)c1ccc(-c2cnc(Nc3ccnc(-c4cnn(S(=O)(=O)C5CC5)c4)n3)cc2N[C@H]2CC[C@@H](CO)CC2)nn1 , tested on EGFR L858R/T790M/C797S (Homo sapiens, UniProt P00533, C797S/L858R/T790M): 0.1

###

# Target system: EGFR del19/T790M/C797S (Homo sapiens, UniProt P00533, C797S/DEL746-750/T790M)
# Assay procedure: Biochemical EGFR kinase assay (Lance Ultra TR-FRET), triple mutant del19/T790M/C797S
# Experimental conditions: IC50 del19/T790M/C797S, 100 μM ATP
Observable: IC50 (nM)
Give bare numbers, in nM.

C[C@]1(O)CC[C@@H](Nc2cc(Nc3ccnc(-c4cnn(S(=O)(=O)C5CC5)c4)n3)ncc2-c2ccc(CC(F)(F)F)cn2)CC1 [Example 218]
0.6
C[C@]1(O)CC[C@@H](Nc2cc(Nc3ccnc(-c4cnn(S(=O)(=O)C5CC5)c4)n3)ncc2-c2ccc(S(=O)(=O)N3CCOCC3)cn2)CC1 [Example 182]
6.4

Now, please, on to the next compound.
The compound listed as CN1CCN(C(=O)c2ccc(-c3cnc(Nc4ccnc(-c5cnn(S(=O)(=O)C6CC6)c5)n4)cc3N[C@H]3CC[C@@H](C(C)(C)O)CC3)nc2)CC1 [Example 203] shows IC50 equal to 0.7
